Reported ratio of Nav 1.5:Nav 1.7 potency, determined by PatchXpress measurement values for the following molecules.
# ASSAY TARGET: human Nav1.5 channels stably expressed in HEK 293 cells (Homo sapiens)
# Construct: expressed in transfected cells
# EXPERIMENTAL DETAILS: PatchXpress 7000 automated patch-clamp, sodium current
# Type: cell-based
# CONDITION: selectivity over Nav1.5
// return a plain number; no unit text

See these solved cases before continuing.
C[C@H](c1ccccc1C#C[C@@H]1CCCN1)n1c(=O)oc2cc(S(=O)(=O)Nc3ncns3)c(F)cc21 = 1034
CNCC#Cc1ccccc1[C@@H](C)n1c(=O)oc2cc(S(=O)(=O)Nc3ncns3)c(F)cc21 = 589
O=c1oc2cc(S(=O)(=O)Nc3ncns3)c(F)cc2n1[C@@H]1CC2(CCC2)Oc2ccccc21 = 99

Item C[C@@H](c1ccccc1CCCN)n1c(=O)oc2cc(S(=O)(=O)Nc3ncns3)c(F)cc21 has what recorded ratio of Nav 1.5:Nav 1.7 potency, determined by PatchXpress measurement?
179

Item NCc1ccccc1Cn1c(=O)oc2cc(S(=O)(=O)Nc3ncns3)ccc21 has what recorded ratio of Nav 1.5:Nav 1.7 potency, determined by PatchXpress measurement?
45

Item Cl.O=c1oc2cc(S(=O)(=O)Nc3nccs3)c(F)cc2n1Cc1cccc2c1CNCC2(F)F has what recorded ratio of Nav 1.5:Nav 1.7 potency, determined by PatchXpress measurement?
151

Item O=c1oc2cc(S(=O)(=O)Nc3nccs3)c(F)cc2n1C1CC2(CCC2)Oc2ccc(Br)cc21 (stereo not drawn) has what recorded ratio of Nav 1.5:Nav 1.7 potency, determined by PatchXpress measurement?
29

Item CC(=O)OCC(=O)NC1CCc2cccc(Cn3c(=O)oc4cc(S(=O)(=O)Nc5ncns5)c(F)cc43)c2C1 (single isomer, unassigned) has what recorded ratio of Nav 1.5:Nav 1.7 potency, determined by PatchXpress measurement?
97

Item CN(C)C1CCc2cccc(Cn3c(=O)oc4cc(S(=O)(=O)Nc5ncns5)c(F)cc43)c2C1 (racemic) has what recorded ratio of Nav 1.5:Nav 1.7 potency, determined by PatchXpress measurement?
207

* * *

# ASSAY TARGET: human Nav1.5 channels stably expressed in HEK 293 cells (Homo sapiens, UniProt Q14524)
# Construct: expressed in transfected cells
# Sequence (Q14524 whole entry): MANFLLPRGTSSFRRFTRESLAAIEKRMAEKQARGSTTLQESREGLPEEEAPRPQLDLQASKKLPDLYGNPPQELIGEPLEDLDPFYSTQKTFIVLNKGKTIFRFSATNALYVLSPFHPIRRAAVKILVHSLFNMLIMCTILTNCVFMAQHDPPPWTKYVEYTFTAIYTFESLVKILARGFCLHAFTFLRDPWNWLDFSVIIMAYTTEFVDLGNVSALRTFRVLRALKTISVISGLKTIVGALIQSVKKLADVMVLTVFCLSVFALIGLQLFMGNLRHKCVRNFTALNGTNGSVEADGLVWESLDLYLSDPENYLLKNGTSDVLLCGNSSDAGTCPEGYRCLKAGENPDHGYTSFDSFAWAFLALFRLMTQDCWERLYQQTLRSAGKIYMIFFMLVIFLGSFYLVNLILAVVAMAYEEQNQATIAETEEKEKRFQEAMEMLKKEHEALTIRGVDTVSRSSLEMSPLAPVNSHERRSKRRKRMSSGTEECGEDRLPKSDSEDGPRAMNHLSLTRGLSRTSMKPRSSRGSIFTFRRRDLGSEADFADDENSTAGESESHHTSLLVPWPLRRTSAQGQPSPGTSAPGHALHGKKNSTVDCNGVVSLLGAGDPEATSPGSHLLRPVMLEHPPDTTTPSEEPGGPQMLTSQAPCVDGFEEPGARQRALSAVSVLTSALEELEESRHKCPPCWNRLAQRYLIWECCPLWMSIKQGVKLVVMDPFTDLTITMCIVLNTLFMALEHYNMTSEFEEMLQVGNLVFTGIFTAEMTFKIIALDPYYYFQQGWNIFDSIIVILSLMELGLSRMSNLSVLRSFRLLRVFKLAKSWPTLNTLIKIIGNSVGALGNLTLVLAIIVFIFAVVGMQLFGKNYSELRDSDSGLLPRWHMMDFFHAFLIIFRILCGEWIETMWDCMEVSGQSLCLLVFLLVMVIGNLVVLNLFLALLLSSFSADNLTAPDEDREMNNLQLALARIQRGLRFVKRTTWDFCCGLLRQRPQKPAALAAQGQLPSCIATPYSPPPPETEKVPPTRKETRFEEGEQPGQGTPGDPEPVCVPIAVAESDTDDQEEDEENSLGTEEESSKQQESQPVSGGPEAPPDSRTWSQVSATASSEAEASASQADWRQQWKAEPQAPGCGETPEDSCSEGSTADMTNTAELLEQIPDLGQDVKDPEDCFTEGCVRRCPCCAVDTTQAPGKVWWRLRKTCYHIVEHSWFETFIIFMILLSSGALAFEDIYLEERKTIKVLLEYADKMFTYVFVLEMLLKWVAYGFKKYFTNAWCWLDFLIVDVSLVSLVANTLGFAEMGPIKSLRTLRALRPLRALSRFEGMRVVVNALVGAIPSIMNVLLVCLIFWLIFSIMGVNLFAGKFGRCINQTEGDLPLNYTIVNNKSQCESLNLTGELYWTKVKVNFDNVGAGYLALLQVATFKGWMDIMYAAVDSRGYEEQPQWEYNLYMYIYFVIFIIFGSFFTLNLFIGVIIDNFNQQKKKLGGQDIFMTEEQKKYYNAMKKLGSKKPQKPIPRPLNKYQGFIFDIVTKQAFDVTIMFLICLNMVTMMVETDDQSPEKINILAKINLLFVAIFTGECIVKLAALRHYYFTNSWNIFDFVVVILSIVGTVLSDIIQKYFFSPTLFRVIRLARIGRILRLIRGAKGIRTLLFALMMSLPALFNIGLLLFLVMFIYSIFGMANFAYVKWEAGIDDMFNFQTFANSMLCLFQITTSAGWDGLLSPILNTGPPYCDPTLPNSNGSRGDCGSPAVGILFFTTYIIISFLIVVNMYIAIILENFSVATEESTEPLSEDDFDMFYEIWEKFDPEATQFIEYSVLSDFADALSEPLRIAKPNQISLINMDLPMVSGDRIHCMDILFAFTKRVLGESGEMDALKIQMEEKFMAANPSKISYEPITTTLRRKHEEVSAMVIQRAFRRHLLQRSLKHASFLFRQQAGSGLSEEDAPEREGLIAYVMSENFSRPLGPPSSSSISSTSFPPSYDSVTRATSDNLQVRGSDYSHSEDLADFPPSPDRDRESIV
# EXPERIMENTAL DETAILS: PatchXpress 7000 automated patch-clamp, sodium current
# Format: cell-based
# CONDITION: selectivity over Nav1.5
Binary call on ratio of Nav 1.5:Nav 1.7 potency, determined by PatchXpress measurement with cut-off 200: strictly below means rule met, and equality or higher means rule not met.

C[C@H](c1ccccc1C#CC(C)(C)N)n1c(=O)oc2cc(S(=O)(=O)Nc3ncns3)c(F)cc21 [Compound 17-10] = rule not met

Quick check: does Cc1csc(NS(=O)(=O)c2ccc3c(c2)oc(=O)n3C(C)c2ccccc2)n1 (stereo not drawn) [Compound 40-5] have ratio of Nav 1.5:Nav 1.7 potency, determined by PatchXpress measurement under 200?
rule met

Quick check: does O=c1oc2cc(S(=O)(=O)Nc3ncns3)c(F)cc2n1C1COCc2ccccc21 (stereo not drawn) [Compound 39-8] have ratio of Nav 1.5:Nav 1.7 potency, determined by PatchXpress measurement under 200?
rule met

Quick check: does O=c1oc2cc(S(=O)(=O)Nc3ncns3)ccc2n1Cc1ccccc1C1=CC2CCC(C1)N2 (stereo not drawn) [Compound 3-7] have ratio of Nav 1.5:Nav 1.7 potency, determined by PatchXpress measurement under 200?
rule not met

Quick check: does C[C@H](c1cccc(C#CC2(N)CCCCC2)c1)n1c(=O)oc2cc(S(=O)(=O)Nc3ncns3)c(F)cc21 [Compound 30-4] have ratio of Nav 1.5:Nav 1.7 potency, determined by PatchXpress measurement under 200?
rule not met

Where these numbers come from: patent US9273040B2
